Data provenance is patent US20240010635A1.

test.system: RET M918T (Homo sapiens, UniProt P07949, M918T)
Construct: Recombinant proteins containing RET wt, RET (M918T) and RET (V804L) domains were purchased from Promega; purchased Promega VA7274
Sequence (P07949 724-1016 M918T limits assumed): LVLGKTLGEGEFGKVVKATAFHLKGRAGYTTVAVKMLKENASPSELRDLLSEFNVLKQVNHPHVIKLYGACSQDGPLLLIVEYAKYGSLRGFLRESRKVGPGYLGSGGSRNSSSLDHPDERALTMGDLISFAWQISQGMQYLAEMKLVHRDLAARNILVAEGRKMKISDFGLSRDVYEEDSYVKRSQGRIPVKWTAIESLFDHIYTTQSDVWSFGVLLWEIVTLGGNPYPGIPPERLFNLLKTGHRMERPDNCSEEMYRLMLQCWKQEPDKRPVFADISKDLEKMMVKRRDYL
run.description: ADP-Glo kinase assay, RET M918T
Assay type: biochemical
test.context: recombinant RET (M918T), 120 min room temperature, read-out: Enzyme activity (IC50, nM) RET M918T
endpoint.label: IC50 (nM)
Entry rule: numbers only, all in nM.

Consider the following illustrative entries.
In [3]: df
Out[3]:
                            molecule_smiles  endpoint_label  measurement_unit  obs_value
0  O=C1Nc2ccc(F)cc2/C1=C1/Nc2ccccc2/C1=N\OCC(=O)N1C[C@H]2C[C@@H]1CN2            IC50                nM       1.19
1  O=C1Nc2ccc(Cl)cc2/C1=C1/Nc2ccccc2/C1=N\OCCN1C[C@H]2C[C@@H]1CN2            IC50                nM       1.27
2  O=C1Nc2ccccc2/C1=C1/Nc2ccccc2/C1=N\OCCN1C[C@@H]2C[C@H]1CN2            IC50                nM      0.771
3  O=C1Nc2ccccc2/C1=C1/Nc2ccccc2/C1=N\OCCN[C@H]1[C@@H]2CNC[C@@H]21            IC50                nM       1.25
4  O=C1Nc2ccccc2/C1=C1/Nc2ccccc2/C1=N\OCC(=O)N1CC2(CNC2)C1            IC50                nM       1.08

Measured IC50 of N[C@@H]1[C@H]2CN(CCO/N=C3/C(=C4/C(=O)Nc5ccccc54)Nc4ccccc43)C[C@@H]12 : 1.02

response.value for O=C1Nc2ccccc2/C1=C1/Nc2ccccc2/C1=N\OCCN1CC2(CNC2)C1 (field: IC50) = 0.449

// recorded IC50 for O=C1Nc2ccc(F)cc2/C1=C1/Nc2ccccc2/C1=N\OCCN1CC2(CNC2)C1 : 0.67

* * *

test.system: FLT3 WT (Homo sapiens, UniProt P36888)
Construct: Recombinant proteins containing the FLT3 and FLT3 (D835Y) domains were purchased from Promega; purchased Promega V4064
Sequence (P36888 610-943 limits assumed): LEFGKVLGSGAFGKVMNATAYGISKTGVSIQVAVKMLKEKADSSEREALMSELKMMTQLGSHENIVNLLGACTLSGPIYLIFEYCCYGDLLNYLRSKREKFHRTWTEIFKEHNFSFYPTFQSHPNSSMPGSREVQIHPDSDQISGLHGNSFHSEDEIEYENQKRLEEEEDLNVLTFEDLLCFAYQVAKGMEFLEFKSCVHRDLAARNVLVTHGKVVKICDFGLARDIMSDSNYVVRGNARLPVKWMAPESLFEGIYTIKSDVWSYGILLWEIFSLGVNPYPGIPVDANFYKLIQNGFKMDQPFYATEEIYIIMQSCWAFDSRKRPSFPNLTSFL
run.description: ADP-Glo kinase assay, FLT3 WT
Type: biochemical
test.context: recombinant FLT3, ADP-Glo, 120 min room temperature; read-out: Enzyme activity (IC50, nM) FLT3 WT
The label is true for IC50 below 3 nM and false for IC50 equal to or exceeding 3 nM.

>>> df
                            molecule_smiles  label_value
0  N[C@@H]1[C@H]2CN(CCO/N=C3/C(=C4/C(=O)Nc5ccccc54)Nc4ccccc43)C[C@@H]12        false

Problem: For the molecule O=C1Nc2ccccc2/C1=C1/Nc2ccccc2/C1=N\OCC(=O)N1CC2(CNC2)C1 , is IC50 under 3 nM?
false

A record lists O=C1Nc2ccc(F)cc2/C1=C1/Nc2ccccc2/C1=N\OCCN1C[C@H]2C[C@@H]1CN2 . Is its IC50 below 3 nM?
false

Strictly below 3 nM in IC50? N[C@@H]1[C@H]2CN(CCO/N=C3/C(=C4/C(=O)Nc5ccc(F)cc54)Nc4ccccc43)C[C@@H]12
true

Hi there! Is IC50 for O=C1Nc2ccccc2/C1=C1/Nc2ccccc2/C1=N\OCCN1C[C@@H]2C[C@H]1CN2 below 3 nM, do you know?
true

Consider the molecule O=C1Nc2ccc(Cl)cc2/C1=C1/Nc2ccccc2/C1=N\OCCN1C[C@H]2C[C@@H]1CN2 . Is its IC50 strictly less than 3 nM?
false

Take the molecule O=C1Nc2ccc(F)cc2/C1=C1/Nc2ccccc2/C1=N\OCC(=O)N1CC2(CNC2)C1 and say whether its IC50 is less than 3 nM.
true
